subject.of.test: AHR (Homo sapiens)
Construct: U87 MG glioblastoma cells (ATCC #HTB-14) endogenously expressing AHR; endogenous in cells; host or cells: U87 MG glioblastoma cells (ATCC #HTB-14)
Sequence (P35869 11-848): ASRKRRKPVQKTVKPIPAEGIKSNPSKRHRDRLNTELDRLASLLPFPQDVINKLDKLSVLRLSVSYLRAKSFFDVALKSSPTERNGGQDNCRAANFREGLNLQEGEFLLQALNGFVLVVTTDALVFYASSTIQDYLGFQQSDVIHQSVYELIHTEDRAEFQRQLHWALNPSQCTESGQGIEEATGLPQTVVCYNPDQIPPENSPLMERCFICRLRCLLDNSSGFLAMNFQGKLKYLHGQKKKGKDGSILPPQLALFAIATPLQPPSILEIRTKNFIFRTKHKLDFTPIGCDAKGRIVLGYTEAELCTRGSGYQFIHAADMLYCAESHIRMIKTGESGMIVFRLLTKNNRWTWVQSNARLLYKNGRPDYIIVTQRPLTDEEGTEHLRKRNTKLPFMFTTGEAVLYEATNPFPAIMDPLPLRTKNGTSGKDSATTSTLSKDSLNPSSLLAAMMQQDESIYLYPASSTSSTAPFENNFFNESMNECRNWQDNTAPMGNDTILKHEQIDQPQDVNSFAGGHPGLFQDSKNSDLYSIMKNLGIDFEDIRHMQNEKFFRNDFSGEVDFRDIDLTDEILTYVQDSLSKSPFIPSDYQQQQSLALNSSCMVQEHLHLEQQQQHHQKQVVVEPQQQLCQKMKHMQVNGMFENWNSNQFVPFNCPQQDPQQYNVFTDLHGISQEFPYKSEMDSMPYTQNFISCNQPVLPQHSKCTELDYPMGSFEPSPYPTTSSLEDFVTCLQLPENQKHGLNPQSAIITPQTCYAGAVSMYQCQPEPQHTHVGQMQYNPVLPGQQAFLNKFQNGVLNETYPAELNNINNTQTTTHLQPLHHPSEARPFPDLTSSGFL
assay.text: In vitro assay 1: antagonism in human cell line (AHR transactivation, firefly luciferase reporter, kynurenic acid prestimulated)
Format: cell-based
measurement.parameters: AHR Antagonism Human IC50 [M]
result.type: IC50 (M)
Report only the number, with the unit M understood.

Lookup: Lab note: record IC50 of `CC[C@@H](Nc1nc2ccccc2c2nc(-c3cccc(OC(F)(F)F)c3)nn12)C(N)=O` tested on AHR (Homo sapiens).
Found: 6.9e-09

Lookup: Lab note: record IC50 of COc1cccc(-c2nc3c4ccccc4nc(NC4CCN(C)C4=O)n3n2)c1 (single isomer, unassigned) [Example 123] tested on AHR (Homo sapiens).
Found: 3.65e-07

Lookup: Lab note: record IC50 of `COc1ccc(-c2nc3c4cccc(Br)c4nc(N[C@@H]4CCCCNC4=O)n3n2)c(OC(F)(F)F)c1` tested on AHR (Homo sapiens).
Found: 8.44e-09

Lookup: Lab note: record IC50 of `CCn1cc(-c2nc3c4cccc(OC)c4nc(N[C@@H]4CCCCNC4=O)n3n2)c(C)n1` tested on AHR (Homo sapiens).
Found: 9.89e-09

Lookup: Lab note: record IC50 of `COc1cccc(-c2nc3c4c(C)cccc4nc(N[C@@H]4CNCCNC4=O)n3n2)c1` tested on AHR (Homo sapiens).
Found: 1.12e-06

Lookup: Lab note: record IC50 of `N#Cc1ccc(-c2nc3c4cccc(Br)c4nc(N[C@H]4CCCCNC4=O)n3n2)cc1` tested on AHR (Homo sapiens).
Found: 5.14e-09

Lookup: Lab note: record IC50 of `CN1CCC(n2cc(-c3nc4c5ccccc5nc(N[C@@H]5CCCCNC5=O)n4n3)cn2)CC1` tested on AHR (Homo sapiens).
Found: 4.08e-06

Lookup: Lab note: record IC50 of `COc1ccc(-c2nc3c4ccc(Br)cc4nc(N[C@@H]4CCCCNC4=O)n3n2)cc1` tested on AHR (Homo sapiens).
Found: 5.82e-08

Lookup: Lab note: record IC50 of `COc1cccc(-c2nc3c4ccccc4nc(N[C@@H]4CCCCNC4=O)n3n2)c1` tested on AHR (Homo sapiens).
Found: 2.57e-09

Lookup: Lab note: record IC50 of `COc1ccc(-c2nc3c4ccc(C)cc4nc(N[C@@H]4CCCCNC4=O)n3n2)cc1` tested on AHR (Homo sapiens).
Found: 3.01e-08

Lookup: Lab note: record IC50 of `COc1cccc(-c2nc3c4ccccc4nc(N[C@H](C)C(N)=O)n3n2)c1` tested on AHR (Homo sapiens).
Found: 8.63e-09
